Target: human serotonin transporters (Homo sapiens)
Construct: expressed in transfected cells
Sequence (P31645 whole entry): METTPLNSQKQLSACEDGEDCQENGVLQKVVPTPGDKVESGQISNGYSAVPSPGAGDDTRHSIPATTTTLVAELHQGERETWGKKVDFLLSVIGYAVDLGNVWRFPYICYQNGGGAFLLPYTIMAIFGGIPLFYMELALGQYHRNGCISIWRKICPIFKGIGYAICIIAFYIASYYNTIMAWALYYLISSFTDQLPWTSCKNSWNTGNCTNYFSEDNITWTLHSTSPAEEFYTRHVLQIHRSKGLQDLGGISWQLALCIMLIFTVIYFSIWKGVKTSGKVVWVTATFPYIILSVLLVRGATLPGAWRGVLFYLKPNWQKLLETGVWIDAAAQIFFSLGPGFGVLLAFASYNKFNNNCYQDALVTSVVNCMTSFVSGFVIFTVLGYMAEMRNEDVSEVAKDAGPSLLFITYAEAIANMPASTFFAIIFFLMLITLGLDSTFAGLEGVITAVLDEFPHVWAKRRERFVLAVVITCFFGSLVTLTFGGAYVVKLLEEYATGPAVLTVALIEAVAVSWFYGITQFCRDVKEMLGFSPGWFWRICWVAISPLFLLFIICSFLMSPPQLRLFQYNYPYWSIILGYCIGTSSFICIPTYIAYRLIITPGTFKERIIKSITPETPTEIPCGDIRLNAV
Experiment: Serotonin Transporter Binding Assay ([3H]-citalopram displacement, HEK-hSERT cell membranes)
Conditions: HEK-hSERT membranes, 1 nM [3H]-citalopram, 1 hr at 25° C.; read-out: SERT (binding Ki)

molecule	Ki
CN(C)C1CCC(c2c[nH]c3ccc(Br)cc23)C1 (centres unmarked)	1 to 10 nM
CCCN(CCC)C1CCC(c2c[nH]c3ccc(C#N)cc23)C1 (centres unmarked)	1 to 10 nM
N#Cc1ccc2[nH]cc([C@H]3CCC(N)C3)c2c1 (some centres unmarked)	10 to 100 nM
CCn1cc([C@@H]2CC[C@@H](N(C)C)C2)c2cc(C#N)ccc21	1 to 10 nM
CN(CCc1ccccc1)C1CCC(c2cn(C)c3ccc(C#N)cc23)C1 (centres unmarked)	1 to 10 nM
